target: UniProt:P29274; test: Adenosine A2a Receptor Functional Assay (A2AGAL2); settings: CHO-K1 cells, cAMP inducible beta-galactosidase reporter, 15 nM NECA agonist challenge
Sequence (P29274 whole entry): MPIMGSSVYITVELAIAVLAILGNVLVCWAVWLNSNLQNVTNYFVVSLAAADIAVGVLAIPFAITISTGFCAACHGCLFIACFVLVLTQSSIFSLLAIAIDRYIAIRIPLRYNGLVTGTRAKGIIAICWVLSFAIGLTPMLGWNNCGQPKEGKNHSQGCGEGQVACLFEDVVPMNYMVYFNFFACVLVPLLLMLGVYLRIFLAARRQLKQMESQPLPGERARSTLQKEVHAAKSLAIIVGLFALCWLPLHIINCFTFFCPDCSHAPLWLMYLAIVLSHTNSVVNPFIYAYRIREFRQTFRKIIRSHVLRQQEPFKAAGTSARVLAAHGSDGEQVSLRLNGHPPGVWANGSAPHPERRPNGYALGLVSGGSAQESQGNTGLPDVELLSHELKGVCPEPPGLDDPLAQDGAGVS
Decide using Ki alone. Strictly below 60 nM: fulfilled. Equal to or above 60 nM: not fulfilled.

Solved entries (count: 5):
Nc1nc(-c2ccco2)nc2sc(CN3CCCC(F)(F)C3)cc12; fulfilled
Nc1nc(-c2cccc(F)c2)nc2sc(CN3CCOCC3)cc12; not fulfilled
N#Cc1ccc(-c2nc(N)c3cc(CN4CC=CC4)sc3n2)cc1; not fulfilled
CCN(CC)Cc1cc2c(N)nc(-c3ccco3)nc2s1; fulfilled
Nc1nc(-c2cocn2)nc2sc(CN3CC=CC3)cc12; not fulfilled

I wonder whether Nc1nc(-c2ccco2)nc2sc(CN3CCC(F)(F)C3)cc12 has Ki below 60 nM. Can you tell?
fulfilled

Record N#Cc1cccc(-c2nc(N)c3cc(CN4CCSCC4)sc3n2)c1 : is its Ki strictly below 60 nM?
not fulfilled

Could you please tell me whether Ki recorded for N#Cc1ccc(-c2nc(N)c3cc(CN4CCC(F)CC4)sc3n2)cc1 is less than 60 nM?
not fulfilled

Field: below-cutoff. Rule: recorded Ki strictly less than 60 nM. Subject: Nc1nc(-c2cccc(O)c2)nc2sc(CN3CCOCC3)cc12
not fulfilled

I'd appreciate it if you could check whether Nc1nc(-c2ccc(C(F)F)o2)nc2sc(CN3CCOCC3)cc12 has Ki smaller than 60 nM.
fulfilled
